Test system: RAW264.7
Experiment: Cytotoxicity against mouse RAW264.7 cells assessed as cell viability at 50 uM after 24 hrs by MTT assay
Format: cell-based
Settings: raw264.7, 24 h
measured quantity: Activity

>>> result("COc1cc(C[C@@H](C)[C@H](C)c2cc(O)c(O)c(OC)c2)ccc1O")
"Non-toxic"
>>> result("C=CCc1cc(OC)c(O[C@H](C)[C@@H](O)c2ccc(OC)c(OC)c2)c(OC)c1")
"Non-toxic"
>>> result("C/C=C/c1ccc(O[C@H](C)[C@@H](O)c2ccc(O)c(OC)c2)c(OC)c1")
"Non-toxic"
>>> result("Oc1ccc([C@@H](O)CCc2ccc3c(c2)OCO3)c(O)c1")
"Non-toxic"
>>> result("COc1cc(CC[C@H](O)c2ccc(O)cc2O)ccc1O")
"Non-toxic"
>>> result("O=C(CCCCCCCCc1ccc(O)c(O)c1)c1c(O)cccc1O")
"Non-toxic"
